Tested on: Bacillus subtilis
Experiment: cleaved RNA product abundance (RNA/gDNA barcode ratio) relative to median wild-type variant (ratio to wild type); higher = more accumulation of the downstream cleavage product
Details: experiment (reporter, strain, medium): exp 8a: truncated aprE reporter, strain BJT201 with 2% xylose (RNase J1 expressed); cleavage site: glnRA (positions -5 to +31 mutated)
PARAMETER_MEASURED: cleaved RNA product abundance

INSERT INTO results (primary_sequence, measurement_target, val) VALUES
  ('CGACATGTCCCGCTTCTTTCATTAATCCGTTAGCAACTGTTTTGCTATATACATTTGCCTTTTAAGAGGAGGAAT', 'Bacillus subtilis', 0.413),
  ('CGACATGTCCCGCTTCTTTCATTAATCCGTAAGCAACTGTTTTGCTATATACCTTTACCTTTTAAGAGGAGGAAT', 'Bacillus subtilis', 0.207),
  ('CGACATGTCCCGCTTCTTTCATTAATCAGTTAGCAACTTTTTTGCTATATACATTTACCTTTTAAGAGGAGGAAT', 'Bacillus subtilis', 1.18),
  ('CGACATGTCCCGCTTCTTTCATTAATCCTTTAGCAACTGTTTTGCTATATACATTTACATTTTAAGAGGAGGAAT', 'Bacillus subtilis', 0.783);

###

// reported cleaved RNA product abundance for each item listed
System: Bacillus subtilis
Experiment: cleaved RNA product abundance (RNA/gDNA barcode ratio) relative to median wild-type variant (ratio to wild type); higher = more accumulation of the downstream cleavage product
Details: experiment (reporter, strain, medium): exp 8a: truncated aprE reporter, strain BJT201 with 2% xylose (RNase J1 expressed); cleavage site: glnRA (positions -5 to +31 mutated)
PARAMETER_MEASURED: cleaved RNA product abundance

INSERT INTO assay_data (primary_sequence, measurement_target, parameter_measured, val) VALUES
  ('CGACATGTCCCGCTTCTTTCATTAATCCGTTAGCAACTGTTTTGCCATATACATTTAACTTTTAAGAGGAGGAAT', 'Bacillus subtilis', 'cleaved RNA product abundance', 0.406),
  ('CGACATGTCCCGCTTCTTTCATTAATCCGTGAGCAACTGTTTTGCTATATTCATTTACCTTTTAAGAGGAGGAAT', 'Bacillus subtilis', 'cleaved RNA product abundance', 0.177),
  ('CGACATGTCCCGCTTCTTTCATTAATCCGTTAACAACTGATTTGCTATATACATTTACCTTTTAAGAGGAGGAAT', 'Bacillus subtilis', 'cleaved RNA product abundance', 0.248),
  ('CGACATGTCCCGCTTCTTTCATTATTCCGTTAGCAACTGTTTTGCTATATACATTTACCCTTTAAGAGGAGGAAT', 'Bacillus subtilis', 'cleaved RNA product abundance', 0.558),
  ('CGACATGTCCCGCTTCTTTCATTAATCCGTTAGCAACTGTTGTGCTATAAACATTTACCTTTTAAGAGGAGGAAT', 'Bacillus subtilis', 'cleaved RNA product abundance', 0.453),
  ('CGACATGTCCCGCTTCTTTCATTAATCCGTAAGCAACTGTTTTACTATATACATTTACCTTTTAAGAGGAGGAAT', 'Bacillus subtilis', 'cleaved RNA product abundance', 0.583),
  ('CGACATGTCCCGCTTCTTTCATTAATTCGTTAGCAACTGTTTTACTATATACATTTACCTTTTAAGAGGAGGAAT', 'Bacillus subtilis', 'cleaved RNA product abundance', 0.749),
  ('CGACATGTCCCGCTTCTTTCATTAACCCGTTAGCAACTGTTTTGCTATATACATTTACCATTTAAGAGGAGGAAT', 'Bacillus subtilis', 'cleaved RNA product abundance', 1.41),
  ('CGACATGTCCCGCTTCTTTCATTAATCCGTTACCAACTGTTTTGCTATATACTTTTACCTTTTAAGAGGAGGAAT', 'Bacillus subtilis', 'cleaved RNA product abundance', 0.145),
  ('CGACATGTCCCGCTTCTTTCATTAATCCATCAGCAACTGTTTTGCTATATACATATACCTTTTAAGAGGAGGAAT', 'Bacillus subtilis', 'cleaved RNA product abundance', 0.507),
  ('CGACATGTCCCGCTTCTTTCATTAATCCTTTAGCAACTGTTTTGCTATATACATATACCTTTTAAGAGGAGGAAT', 'Bacillus subtilis', 'cleaved RNA product abundance', 0.842),
  ('CGACATGTCCCGCTTCTTTCATTAATCCGTTAGCAACTGTTTTGCTATATACATATACATTTTAAGAGGAGGAAT', 'Bacillus subtilis', 'cleaved RNA product abundance', 0.68),
  ('CGACATGTCCCGCTTCTTTCATTAATCCGTTAGCAACTGTGTTTCTATATACATTTAACTTTTAAGAGGAGGAAT', 'Bacillus subtilis', 'cleaved RNA product abundance', 0.453),
  ('CGACATGTCCCGCTTCTTTCATTAATCCGTTAGCAACTGGTTTGCTGTATACATTTACCTTTTAAGAGGAGGAAT', 'Bacillus subtilis', 'cleaved RNA product abundance', 0.0825),
  ('CGACATGTCCCGCTTCTTTCATTAATCCGTTATCAACTGTTTTGCTATATACATTTACGTTTTAAGAGGAGGAAT', 'Bacillus subtilis', 'cleaved RNA product abundance', 0.376),
  ('CGACATGTCCCGCTTCTTTCATTAATCCGTTAGCAGCTGTTTTTCTATATACATTTACCTTTTAAGAGGAGGAAT', 'Bacillus subtilis', 'cleaved RNA product abundance', 0.778),
  ('CGACATGTCCCGCTTCTTTCATTAATCCGTTAGCAAATGTTTTGCTATATAAATTTACCTTTTAAGAGGAGGAAT', 'Bacillus subtilis', 'cleaved RNA product abundance', 0.499),
  ('CGACATGTCCCGCTTCTTTCATTAATCCGTTAGTAACTGTTTTTCTATATACATTTACCTTTTAAGAGGAGGAAT', 'Bacillus subtilis', 'cleaved RNA product abundance', 0.688),
  ('CGACATGTCCCGCTTCTTTCATTAATCCCTTAGCAACTGTTTTGCTATATACAATTACCTTTTAAGAGGAGGAAT', 'Bacillus subtilis', 'cleaved RNA product abundance', 0.305),
  ('CGACATGTCCCGCTTCTTTCATTAATCCGTTAGCAACTGTTTTGCTATACACATTTACTTTTTAAGAGGAGGAAT', 'Bacillus subtilis', 'cleaved RNA product abundance', 0.146),
  ('CGACATGTCCCGCTTCTTTCATTAATCGGTTAGCAACTGTTTTGCTATAAACATTTACCTTTTAAGAGGAGGAAT', 'Bacillus subtilis', 'cleaved RNA product abundance', 0.876),
  ('CGACATGTCCCGCTTCTTTCATTAATCCCTTAGCAACTGTTTGGCTATATACATTTACCTTTTAAGAGGAGGAAT', 'Bacillus subtilis', 'cleaved RNA product abundance', 0.204),
  ('CGACATGTCCCGCTTCTTTCATTACTCCGTTAGCAACTGTTTTGCCATATACATTTACCTTTTAAGAGGAGGAAT', 'Bacillus subtilis', 'cleaved RNA product abundance', 0.246),
  ('CGACATGTCCCGCTTCTTTCATTAATCCGTTAGGAACTGTTTTGCTATATATATTTACCTTTTAAGAGGAGGAAT', 'Bacillus subtilis', 'cleaved RNA product abundance', 0.367),
  ('CGACATGTCCCGCTTCTTTCATTATTCCAATAGCAACTGTTTTGCTATATACATTTACCTTTTAAGAGGAGGAAT', 'Bacillus subtilis', 'cleaved RNA product abundance', 0.925),
  ('CGACATGTCCCGCTTCTTTCATTAATCCATTACCAACTGTTTTACTATATACATTTACCTTTTAAGAGGAGGAAT', 'Bacillus subtilis', 'cleaved RNA product abundance', 0.262),
  ('CGACATGTCCCGCTTCTTTCATTAATACGTTAGCAACTGTTTTGTTATATACATTTACCTTTTAAGAGGAGGAAT', 'Bacillus subtilis', 'cleaved RNA product abundance', 0.372),
  ('CGACATGTCCCGCTTCTTTCATTAATACGTTAGCAACTGTTTTGCTAAATACATTTACCTTTTAAGAGGAGGAAT', 'Bacillus subtilis', 'cleaved RNA product abundance', 0.266),
  ('CGACATGTCCCGCTTCTTTCATTAATCCGTGAGCAACTATTTTGCTATATACATTTACCTTTTAAGAGGAGGAAT', 'Bacillus subtilis', 'cleaved RNA product abundance', 0.988),
  ('CGACATGTCCCGCTTCTTTCATTATTCCGTTAGCAACTGTTTTGCTATATACATTGACCTTTTAAGAGGAGGAAT', 'Bacillus subtilis', 'cleaved RNA product abundance', 1.55);
